Observed muscarinic M3 receptor-positive allosteric modulator activity, 10 μM (-fold shift) for human muscarinic M3 receptor (Homo sapiens), reported per entry below.

Exam item: What measured muscarinic M3 receptor-positive allosteric modulator activity, 10 μM (-fold shift) is associated with CC[C@@H]1CCCN1Cc1sc(NC(=O)c2cnc(N3CCN(CC(=O)O)CC3)cn2)nc1-c1cc(F)cc(C(F)(F)F)c1 on human muscarinic M3 receptor (Homo sapiens)?
Marked response: 195 -fold shift

Exam item: Could you do the same for C[C@@H]1CCCN1Cc1sc(NC(=O)c2cnc(N3CCN(CCC(=O)O)CC3)cn2)nc1-c1cc(C2CC2)cc(C(F)(F)F)c1 , please?
Marked response: 114 -fold shift

Exam item: C[C@@H]1CN(c2cnc(C(=O)Nc3nc(-c4cc(Cl)cs4)c(CN(C)CC4CC4)s3)cn2)CCN1CCC(=O)O , same question.
Marked response: 151 -fold shift

Exam item: Also need C[C@@H]1CC[C@@H](C)N1Cc1sc(NC(=O)c2cnc(N3CCN(CCC(=O)O)CC3)cn2)nc1-c1cc(C(F)(F)F)cs1 , thanks.
Marked response: 627 -fold shift

Exam item: Likewise for C[C@@H]1CCCN1Cc1sc(NC(=O)c2cnc(N3CCN(CCC(=O)O)[C@@H](C)C3)cn2)nc1-c1cc(Cl)cs1 ?
Marked response: 160 -fold shift

Exam item: Item: C[C@@H]1CCCN1Cc1sc(NC(=O)c2cnc(N3CCN(CCC(=O)O)CC3)cn2)nc1-c1cc2ccccc2s1
Marked response: 41 -fold shift

Exam item: Another compound to check: CN(Cc1sc(NC(=O)c2cnc(N3CCN(CCC(=O)O)CC3)cn2)nc1-c1cc(F)cc(C(F)(F)F)c1)CC1CC1
Marked response: 169 -fold shift

###

target: human muscarinic M3 receptor (Homo sapiens, UniProt P20309)
Sequence (P20309 whole entry): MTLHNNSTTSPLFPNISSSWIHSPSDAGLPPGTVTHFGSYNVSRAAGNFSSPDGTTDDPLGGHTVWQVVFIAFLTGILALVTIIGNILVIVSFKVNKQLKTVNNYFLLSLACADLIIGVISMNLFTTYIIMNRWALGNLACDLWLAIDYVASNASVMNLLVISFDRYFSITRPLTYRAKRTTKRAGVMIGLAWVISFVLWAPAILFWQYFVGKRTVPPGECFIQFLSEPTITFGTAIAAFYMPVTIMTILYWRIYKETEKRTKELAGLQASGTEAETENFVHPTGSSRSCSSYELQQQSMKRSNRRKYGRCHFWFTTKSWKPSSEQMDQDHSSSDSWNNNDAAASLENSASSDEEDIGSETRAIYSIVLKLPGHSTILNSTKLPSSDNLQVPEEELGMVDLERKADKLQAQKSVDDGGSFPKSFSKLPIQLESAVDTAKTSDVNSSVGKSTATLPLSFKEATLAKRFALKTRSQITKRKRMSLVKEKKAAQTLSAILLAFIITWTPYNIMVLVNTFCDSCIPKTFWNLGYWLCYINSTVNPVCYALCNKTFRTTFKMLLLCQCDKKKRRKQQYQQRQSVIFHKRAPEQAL
measure: muscarinic M3 receptor-positive allosteric modulator activity, 1 μM (-fold shift)

Exam item: Lab note: need muscarinic M3 receptor-positive allosteric modulator activity, 1 μM (-fold shift) for CCN(CC)Cc1sc(NC(=O)c2cnc(N3CCN(CC(=O)O)C[C@H]3C)cn2)nc1-c1cc(F)cc(C(F)(F)F)c1 on human muscarinic M3 receptor (Homo sapiens, UniProt P20309), anyone have it?
Marked response: 57 -fold shift

Exam item: Could you do the same for C[C@@H]1CCCN1Cc1sc(NC(=O)c2cnc(N3CCN(CCC(=O)O)C[C@@H]3C)cn2)nc1-c1cc(F)cc(C(F)(F)F)c1 , please?
Marked response: 15 -fold shift

Exam item: Field entry: CC[C@@H]1CCCN1Cc1sc(NC(=O)c2cnc(N3CCN(CCC(=O)O)[C@H](C)C3)cn2)nc1-c1cc(Cl)cs1
Marked response: 65 -fold shift

Exam item: Field entry: Cc1cc(OC(F)(F)F)cc(-c2nc(NC(=O)c3cnc(N4CCN(C(C)C(=O)O)CC4)cn3)sc2CN2CCC[C@H]2C)c1 (stereo partly drawn)
Marked response: 27 -fold shift

Exam item: Likewise for COc1c(Cl)cc(-c2nc(NC(=O)c3cnc(N4CCN(CCC(=O)O)CC4)cn3)sc2CN2CCC[C@H]2C)cc1Cl ?
Marked response: 76 -fold shift

Exam item: Param item: CC[C@@H]1CCCN1Cc1sc(NC(=O)c2cnc(N3CCN(CC(=O)O)CC3)cn2)nc1-c1cc(F)cc(C(F)(F)F)c1
Marked response: 37 -fold shift

###

Molecular target: human c-Mpl-introduced Ba/F3 cell (Homo sapiens, UniProt P40238)
Construct: expressed in transfected cells
Sequence (P40238 26-635): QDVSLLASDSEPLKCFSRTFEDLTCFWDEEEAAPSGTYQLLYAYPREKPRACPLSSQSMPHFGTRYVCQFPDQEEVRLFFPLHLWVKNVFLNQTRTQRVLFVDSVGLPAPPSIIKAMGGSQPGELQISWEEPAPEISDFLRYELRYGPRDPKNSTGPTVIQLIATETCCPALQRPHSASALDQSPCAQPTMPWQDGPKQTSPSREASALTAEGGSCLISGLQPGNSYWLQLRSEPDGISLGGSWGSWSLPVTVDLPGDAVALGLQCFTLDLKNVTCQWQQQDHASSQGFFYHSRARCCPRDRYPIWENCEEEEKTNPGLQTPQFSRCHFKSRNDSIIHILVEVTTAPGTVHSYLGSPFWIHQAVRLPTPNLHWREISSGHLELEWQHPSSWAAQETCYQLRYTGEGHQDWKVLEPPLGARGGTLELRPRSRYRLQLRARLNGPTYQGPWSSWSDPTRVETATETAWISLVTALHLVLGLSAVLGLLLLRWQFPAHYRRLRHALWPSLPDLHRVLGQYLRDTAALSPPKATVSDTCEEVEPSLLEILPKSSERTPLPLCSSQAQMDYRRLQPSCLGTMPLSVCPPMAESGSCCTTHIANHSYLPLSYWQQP
Test: Test Example 2: human c-Mpl-introduced Ba/F3 cell proliferative activity
Format: cell-based
Details: concentration exhibiting 30% proliferation; 100% = positive control (Example 315 of Patent Document 1) at 1 μM
Where a name gives a salt, the structure may show the parent alone.
measure: human c-Mpl-introduced Ba/F3 cell proliferative activity EC30

Exam item: Returns the measured human c-Mpl-introduced Ba/F3 cell proliferative activity EC30 for the input compound. Input: COc1c(Cl)cc(-c2nc(NC(=O)c3cnc(N4CCN(CCC(=O)O)CC4)cn3)sc2CN2CCC[C@H]2C)cc1Cl
Marked response: >10 µM

Exam item: And then COc1ccc(-c2nc(NC(=O)c3cnc(N4CCN(CCC(=O)O)[C@@H](C)C4)cn3)sc2CN2CCC[C@H]2C)cc1C(F)(F)F , what is it?
Marked response: >10 µM

Exam item: Lookup COc1c(F)cc(-c2nc(NC(=O)c3cnc(N4CCN(CCC(=O)O)C[C@@H]4C)cn3)sc2CN2CCC[C@H]2C)cc1C(F)(F)F
Marked response: >10 µM

Exam item: Record: C[C@@H]1CCCN1Cc1sc(NC(=O)c2cnc(N3CCN(CCC(=O)O)CC3)cn2)nc1-c1cc(F)cc(C(F)(F)F)c1
Marked response: >10 µM

Exam item: Next compound: C[C@@H]1CCCN1Cc1sc(NC(=O)c2cnc(N3CCN(CCC(=O)O)C[C@H]3C)cn2)nc1-c1cc(Br)cs1
Marked response: 2.7 µM

Exam item: Can you check C[C@@H]1CCCN1Cc1sc(NC(=O)c2cnc(N3CCN(CCC(=O)O)CC3)cn2)nc1-c1ccc(C2CC2)c(C(F)(F)F)c1 next?
Marked response: >10 µM

Exam item: Follow-up item: C[C@@H]1CCCN1Cc1sc(NC(=O)c2cnc(N3CCN(CCC(=O)O)C[C@H]3C)cn2)nc1-c1cc(F)cc(C(F)(F)F)c1
Marked response: >10 µM

Exam item: Another compound: Cc1cc(OC(F)(F)F)cc(-c2nc(NC(=O)c3cnc(N4CCN(CCC(=O)O)CC4)cn3)sc2CN2CCC[C@H]2C)c1
Marked response: >10 µM

Exam item: Could you do the same for CC[C@@H]1CCCN1Cc1sc(NC(=O)c2cnc(N3CCN(CCC(=O)O)[C@@H](C)C3)cn2)nc1-c1cc(Cl)cs1 , please?
Marked response: 0.5 µM

Exam item: Consider next the compound C[C@@H]1CCCN1Cc1sc(NC(=O)c2cnc(N3CCN(CCC(=O)O)C[C@@H]3C)cn2)nc1-c1cc(F)cc(C(F)(F)F)c1 in the same way.
Marked response: >10 µM

Exam item: C[C@@H]1CCCN1Cc1sc(NC(=O)c2cnc(N3CCN(CCC(=O)O)CC3)cn2)nc1-c1cc(Br)cc(C(F)(F)F)c1 , same question.
Marked response: >10 µM

Exam item: Also C[C@@H]1CCCN1Cc1sc(NC(=O)c2cnc(N3CCN(CCC(=O)O)CC3)cn2)nc1-c1cc(Cl)cs1 [Example 82] ?
Marked response: >10 µM

Exam item: What do we get for C[C@@H]1CCCN1Cc1sc(NC(=O)c2cnc(N3CCN(CCC(=O)O)[C@@H](C)C3)cn2)nc1-c1cc(Cl)cs1 ?
Marked response: 4.7 µM

Exam item: And for C[C@@H]1CCCN1Cc1sc(NC(=O)c2cnc(N3CCN(CCC(=O)O)C[C@H]3C)cn2)nc1-c1cc(C(F)(F)F)cs1 [Example 3, dihydrochloride] ?
Marked response: 0.78 µM

Exam item: Continue with C[C@@H]1CC[C@@H](C)N1Cc1sc(NC(=O)c2cnc(N3CCN(CCC(=O)O)CC3)cn2)nc1-c1cc(F)cc(C(F)(F)F)c1
Marked response: >10 µM

Exam item: Now consider CC(C(=O)O)N1CCN(c2cnc(C(=O)Nc3nc(-c4cc(Cl)cc(C(F)(F)F)c4)c(CN4CCC[C@H]4C)s3)cn2)CC1 (some centres unmarked) and answer again.
Marked response: >10 µM

Exam item: Another compound: CCOc1ccc(-c2nc(NC(=O)c3cnc(N4CCN(CCC(=O)O)C[C@H]4C)cn3)sc2CN2CCC[C@H]2CC)cc1C(F)(F)F
Marked response: >10 µM

Exam item: Try C[C@@H]1CC[C@@H](C)N1Cc1sc(NC(=O)c2cnc(N3CCN(CCC(=O)O)CC3)cn2)nc1-c1cc(C(F)(F)F)cs1 next.
Marked response: 5 µM

Exam item: Check CCN(CC)Cc1sc(NC(=O)c2cnc(N3CCN(CC(=O)O)C[C@H]3C)cn2)nc1-c1cc(F)cc(C(F)(F)F)c1 too.
Marked response: >10 µM

Exam item: Repeat for the following compound: C[C@@H]1CC[C@@H](C)N1Cc1sc(NC(=O)c2cnc(N3CCN(CCC(=O)O)[C@@H](C)C3)cn2)nc1-c1cc(Cl)cs1
Marked response: >10 µM

Exam item: How about CCN(Cc1sc(NC(=O)c2cnc(N3CCN(CCC(=O)O)CC3)cn2)nc1-c1cc(F)cc(C(F)(F)F)c1)C(C)C ?
Marked response: >10 µM

Exam item: Same question, COc1cc(-c2nc(NC(=O)c3cnc(N4CCN(CCC(=O)O)CC4)cn3)sc2CN2CCC[C@H]2C)cc(C(F)(F)F)c1 this time
Marked response: >10 µM

Exam item: Repeat with C[C@@H]1CCCN1Cc1sc(NC(=O)c2cnc(N3CCN(CCC(=O)O)CC3)cn2)nc1-c1cc(Br)cs1
Marked response: 2.8 µM

Exam item: Let us now turn to C[C@H]1CN(c2cnc(C(=O)Nc3nc(-c4cc(Cl)cs4)c(CN(C)CC4CC4)s3)cn2)CCN1CCC(=O)O
Marked response: 8 µM

Exam item: And COc1c(F)cc(-c2nc(NC(=O)c3cnc(N4CCN(CCC(=O)O)CC4)cn3)sc2CN2CCC[C@H]2C)cc1C(F)(F)F ?
Marked response: >10 µM

Exam item: Entry COc1c(F)cc(-c2nc(NC(=O)c3cnc(N4CCN(CCC(=O)O)C[C@H]4C)cn3)sc2CN2CCC[C@H]2C)cc1C(F)(F)F please
Marked response: >10 µM
